- ASSAY REMARKS: in vivo
- ASSAY CONTEXT: nude, mouse, iv, 10 mg/kg
- Description: Volume of distribution in nude mouse at 10 mg/kg, iv
EXPERIMENTAL ENDPOINT: Vd
Please provide the amount together with its unit, number first.

Query: // Vd lookup, key: "COc1ccc(F)cc1C(=O)c1cnc(NC2CCN(S(C)(=O)=O)CC2)nc1N"
Reply: 0.885 L/kg

====

Cyclin-dependent kinase 1 (Homo sapiens) Ki data
Sequence (P06493 whole entry): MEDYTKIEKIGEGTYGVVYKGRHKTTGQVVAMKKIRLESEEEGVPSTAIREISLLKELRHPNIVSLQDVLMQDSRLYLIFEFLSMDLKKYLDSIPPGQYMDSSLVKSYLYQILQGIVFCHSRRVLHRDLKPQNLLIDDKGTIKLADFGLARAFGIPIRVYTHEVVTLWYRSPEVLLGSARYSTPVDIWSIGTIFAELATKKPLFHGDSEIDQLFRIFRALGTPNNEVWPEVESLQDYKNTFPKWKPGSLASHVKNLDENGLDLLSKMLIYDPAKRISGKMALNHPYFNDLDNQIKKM
Dear colleague, please return just the value in nM, with no unit written.

// solved cases for Ki follow
COc1cc(F)ccc1C(=O)c1cnc(NC2CCN(S(C)(=O)=O)CC2)nc1N | 193
CS(=O)(=O)N1CCC(Nc2ncc(C(=O)c3c(F)cccc3F)c(N)n2)CC1 | 38

Let us move to another entry and its Ki.
Query: // Ki lookup, key: "CCOC(=O)N1CCC(Nc2ncc(C(=O)c3ccccc3F)c(N)n2)CC1"
Reply: 1640
